assay.summary: Metabolic stability in mouse liver microsomes assessed as compound remaining at 1 uM by LC-MS/MS analysis; note: time not given here
Type: ADME, Microsome
condition.notes: microsomes, 1 µM
Field: label. Allowed values: Y (Stabilty < 90%) or N (Stabilty >= 90%).

Worked cases, answers included:
CS(=O)(=O)NC(=O)CCc1cn(-c2ccc(C(F)(F)F)nc2)nc1-c1ccc(Cl)cc1: N
CS(=O)(=O)NC(=O)NCc1cc(-c2ccc(Br)cc2)oc1-c1ccncc1: Y
CS(=O)(=O)NC(=O)C1CC1c1cn(-c2ccc(Cl)cc2)nc1-c1ccncc1 (stereo unspecified): N
CS(=O)(=O)NC(=O)/C=C/c1cn(-c2ccc(Cl)cc2)nc1-c1ccncc1: Y
CS(=O)(=O)NC(=O)CCc1cn(-c2ccc(Br)cc2)nc1C1CCOCC1: Y
CS(=O)(=O)NC(=O)CCc1cn(-c2ccc(Br)cc2)nc1-c1ccncc1: Y

Query: Check if Stabilty falls below 90% for `CS(=O)(=O)NC(=O)OCc1cn(-c2ccc(Cl)cc2)nc1-c1ccncc1` .
Result: N

Query: Could you do the same for `CS(=O)(=O)NC(=O)CCc1cn(-c2ccc(Br)cc2)nc1-c1ccc(Cl)cc1` , please?
Result: Y

Query: Repeat for the following compound: `CS(=O)(=O)NC(=O)CCc1cn(-c2ccc(Br)cc2)nc1-c1cccnc1`
Result: N
